Test system: UACC-257
Experimental Details: NCI tumour cell line growth inhibition, 48 h
Active and inactive are the calls of the source. Rule as the data show it: active = GI50 up to about 1.1 µM and inactive = higher.
Overview of reported GI50 across a group of molecules:

The cases that follow already have their GI50 on record.
# Molecule, Target Desc, Assay Value
rows = [
    ("Cc1ccccc1C(C#N)C(=O)C(=O)Nc1cccc(Cl)c1 (centres undefined)", "UACC-257", "> 100 µM (inactive)"),
    ("CC1(C)COC(c2ccc(C(F)(F)F)cc2C(O)c2ccc3ccccc3c2)=N1 (centres undefined)", "UACC-257", "> 10 µM (inactive)"),
    ("COC1CC(O)C(OC(=O)c2ccccc2)C(C)O1 (centres undefined)", "UACC-257", "> 10 µM (inactive)"),
    ("Cn1ccnc1CC(C)(O)c1ccccc1 (centres undefined)", "UACC-257", "> 100 µM (inactive)"),
    ("COc1cc2c[n+](C)c3c4cc(OC)c(OC(C)C)cc4ccc3c2cc1OC", "UACC-257", "29.4 µM (inactive)"),
    ("NNc1ccccc1Cl", "UACC-257", "> 100 µM (inactive)"),
]

Return reported GI50. Input molecule: N#CCCN(CCCN(C(=O)Nc1ccc(NC(=O)N(CCCN(CCC#N)C(N)=O)c2ccccc2)cc1)c1ccccc1)C(N)=O > 100 µM (inactive)

Return reported GI50. Input molecule: O=C(Nc1cc(Cl)c(Cl)cc1Cl)C(=O)C(C(=O)c1ccc(Cl)c(Cl)c1)C1OC(=O)c2ccccc21 (centres undefined) 13.9 µM (inactive)
